- TARGET_SYSTEM: BACE2 (Rattus norvegicus, UniProt Q6IE75)
- Construct: endogenous cellular BACE2 in the Ins1e rat cell line; endogenous in cells
- Sequence (Q6IE75 63-514): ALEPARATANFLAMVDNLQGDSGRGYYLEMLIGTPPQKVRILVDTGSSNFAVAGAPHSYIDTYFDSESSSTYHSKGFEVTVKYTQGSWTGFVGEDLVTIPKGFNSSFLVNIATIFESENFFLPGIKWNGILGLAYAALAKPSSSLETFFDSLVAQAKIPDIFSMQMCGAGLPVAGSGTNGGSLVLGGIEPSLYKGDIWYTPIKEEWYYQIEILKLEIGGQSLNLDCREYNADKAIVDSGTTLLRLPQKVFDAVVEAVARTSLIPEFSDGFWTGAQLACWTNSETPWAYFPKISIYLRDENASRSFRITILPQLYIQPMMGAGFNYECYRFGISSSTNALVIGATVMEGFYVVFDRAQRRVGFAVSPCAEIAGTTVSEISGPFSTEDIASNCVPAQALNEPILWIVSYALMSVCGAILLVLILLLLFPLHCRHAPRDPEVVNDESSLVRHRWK
- TEST_DETAILS: Assay for BACE inhibition by measuring cellular TMEM27 cleavage
- CONDITION_INFO: INS-TMEM27 (INS1e-derived rat cell line, inducible hTMEM27); shed TMEM27 in medium by ELISA
PARAMETER: IC50 (nM)

The examples below pair each entry with its known result.
>>> print(df.to_string())
                                   compound  unit_text  reported_measurement
0  C[C@]1(c2cc(NC(=O)c3ccc(F)cn3)ccc2F)N=C(N)O[C@@H]2COC[C@@H]21 [Example 3]         nM                    18
1  C[C@]1(c2cc(NC(=O)c3ncc(Cl)cc3Cl)ccc2F)N=C(N)O[C@@H]2COC[C@@H]21 [Example 2]         nM                    14
2  C[C@]1(c2cc(NC(=O)c3ccc(C#N)cn3)ccc2F)N=C(N)O[C@@H]2COC[C@@H]21 [Example 4]         nM                    17
3  C[C@]1(c2cc(NC(=O)c3ccccn3)ccc2F)N=C(N)O[C@@H]2COC[C@@H]21 [Example 5]         nM                    37

[I] C[C@]1(c2cc(NC(=O)c3ccc(OCC(F)(F)F)cn3)ccc2F)N=C(N)O[C@@H]2COC[C@@H]21 [Example 6]
[II] C[C@]1(c2cc(NC(=O)c3ccc(Cl)cn3)ccc2F)N=C(N)O[C@@H]2COC[C@@H]21 [Example 1]
Problem: Of the two listed items, I and II , which carries the larger IC50 figure? I would appreciate it if you answered with the label of your choice.
Solution: I
(I: 556 nM, II: 36 nM)

[A] C[C@]1(c2cc(NC(=O)c3cnc(OCC(F)(F)F)cn3)ccc2F)N=C(N)O[C@@H]2COC[C@@H]21 [Example 8]
[B] CC#CCOc1cnc(C(=O)Nc2ccc(F)c([C@@]3(C)N=C(N)O[C@@H]4COC[C@@H]43)c2)cn1 [Example 7]
Problem: Of the two listed items, A and B , which carries the larger IC50 figure? I would appreciate it if you answered with the label of your choice.
Solution: A
(A: 209 nM, B: 47 nM)
